Biological target: Torsin-1A (Homo sapiens) (UniProt O14656)
Sequence (O14656 whole entry, looked up): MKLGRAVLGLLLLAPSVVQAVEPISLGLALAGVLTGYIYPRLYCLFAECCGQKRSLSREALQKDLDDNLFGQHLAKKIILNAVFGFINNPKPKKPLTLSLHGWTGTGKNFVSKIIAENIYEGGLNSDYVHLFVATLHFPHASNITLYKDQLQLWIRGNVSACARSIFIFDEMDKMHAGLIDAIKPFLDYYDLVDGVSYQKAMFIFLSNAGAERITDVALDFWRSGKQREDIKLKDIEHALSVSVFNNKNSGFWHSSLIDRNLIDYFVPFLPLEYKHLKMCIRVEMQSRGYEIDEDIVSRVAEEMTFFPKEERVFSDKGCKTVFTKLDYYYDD
Assay: torsin A mutant lysate binding on microarrays – cell lysate, small-molecule microarray, COS7 lysate, 635/667 nm fluorescence, primary screen (AID 1150);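 also: score pools 667 nm emission and signal to noise measuring lysate protein binding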
Conditions: COS7 hTOR1A mutant lysate, 635 nm fluorescence, higher = more signal
Result type: composite z-score

Known results for compounds:
>>> measured_result("COC(=O)c1ccc(OC)c(/C=C\\CC(CCc2ccccc2)OC(C)=O)c1 (stereo not drawn)")
-0.152
>>> measured_result("COC(=O)C(CC#Cc1ccc2c(c1)[C@]1(C(=O)N2)[C@H](c2ccccc2OCCO)N2[C@H](c3ccccc3)[C@H](c3ccccc3)OC(=O)[C@H]2[C@@H]1C(=O)Nc1nc2ccccc2s1)C(=O)OC")
0.24
>>> measured_result("COC(=O)[C@@]1(Cc2ccc(F)cc2)[C@@H]2[C@@H](CC(=O)[C@H]2CC(=O)C(=O)N2CCCC2)CN1C(=O)c1ccccc1")
0.666
>>> measured_result("CC(C)c1ccc(NN2C(C(O)c3ccccn3)C=CC3C(=O)N(c4ccccc4)C(=O)C32)cc1 (stereo not drawn)")
2.09

Lookup: So what does the record say about composite z-score for [N-]=[N+]=Nc1ccccc1[C@@H]1OC(c2ccc(OCCCO)cc2)=N[C@]1(CCS(=O)(=O)c1ccccc1)C(=O)NCc1ccccc1 ?
Found: 1.29

Lookup: What value of composite z-score has been reported for the following compound? COC(=O)[C@@]1(Cc2ccc(OC)cc2)[C@H]2c3cc(C(=O)N4CCCC4)n(CCc4ccc(O)c(OC)c4)c3C[C@H]2CN1C(=O)c1ccccc1
Found: 0.774

Lookup: Entry under review: COCCOC(=O)N1C(=O)[C@@]2(c3cc(C#CCNC(N)=O)ccc31)[C@H](c1ccc(OCCO)cc1)N1[C@H](c3ccccc3)[C@H](c3ccccc3)OC(=O)[C@H]1[C@@H]2C(=O)N1CCN(c2ncccn2)CC1 . Reported composite z-score?
Found: 0.581

---

Test: changes in parasitized red cell lysis, either direction – P. falciparum Indochina, OD700, 3 h, PSAC antagonist project, primary screen (AID 1156)
Conditions: P. falciparum-infected erythrocytes, osmotic lysis, higher = more signal, called active from +8 up or from −8 down
Param threshold (0.7) applies to z-score; output Satisfied when value >= threshold, Not satisfied when value < threshold.

Before answering, review these 5 worked examples.
>>> class_name("CCCC[C@H]1OB(O)C[C@H]2C1=C(COc1ccccc1)Cn1c(=O)n(-c3ccccc3)c(=O)n12")
"Satisfied"
>>> class_name("OCc1ccc(-c2cc[n+](Cc3cccc(OC(F)(F)F)c3)cc2)cc1")
"Not satisfied"
>>> class_name("CCCNC(=O)[C@@H]1c2ccccc2C(=O)N(CC23CC4CC(CC(C4)C2)C3)[C@H]1c1ccc(CO)cc1")
"Satisfied"
>>> class_name("C[C@@]1([C@@H](NC(=O)c2cccs2)c2ccc(-c3ccccc3)cc2)C[C@H]1C1CCCCC1")
"Satisfied"
>>> class_name("O=C1NC(=O)C2C1C=CC(C(O)c1ccc3c(c1)OCO3)N2Nc1ccc(Cl)cc1Cl (stereo not drawn)")
"Not satisfied"

Lookup: For this compound, is measured z-score 0.7 or higher? COC(=O)C(CC#Cc1ccc2c(c1)[C@]1(C(=O)N2)[C@H](c2ccc(OCCO)cc2)N2[C@H](c3ccccc3)[C@H](c3ccccc3)OC(=O)[C@H]2[C@@H]1C(=O)O)C(=O)OC
Found: Satisfied

Lookup: Has O=C1C2C=CC(C(O)c3ccccn3)N(Nc3ccccc3)C2C(=O)N1c1ccccc1 (stereo not drawn) a recorded z-score greater than or equal to 0.7?
Found: Not satisfied

Lookup: Decide: is the reported value of z-score for O=C(C=C(CC(O)c1cccc(Cl)c1)OCCF)OCCF (stereo not drawn) equal to or greater than 0.7?
Found: Not satisfied

---

System: Sam68 (KHDRBS1)
Test: compounds binding KHDRBS1 protein – biochemical, small-molecule microarray, 635 nm fluorescence, primary screen (AID 1125);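 also: score merges 667 nm channel intensity with signal to noise over triplicate slides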
Conditions: higher = more signal
Yes means recorded composite z-score is 1 or above; No means it is below 1.

>>> class_name("CCCC[C@@H](O)C1=C(COc2ccccc2)Cn2c(=O)n(-c3ccccc3)c(=O)n2[C@H]1CO")
"No"
>>> class_name("COc1ccc(CCNC(=O)[C@@H]2c3ccccc3C(=O)N(Cc3ccccc3)[C@H]2c2ccc(CO)cc2)cc1")
"Yes"
>>> class_name("CCCC=C(CCC)[C@@H](NS(=O)(=O)c1ccccc1)c1ccc(C(F)(F)F)cc1")
"Yes"
>>> class_name("O=C1C2C=CC(C(O)c3ccccn3)N(Nc3ccccc3)C2C(=O)N1c1ccccc1 (stereo not given)")
"No"

From here, focus on the item given below.
Lookup: Check the entry CN1C(=O)C2C=CC(C(O)COCc3ccccc3)N(Nc3ccccc3)C2C1=O (stereo not given) : does composite z-score equal or exceed 1?
Found: No

---

Assay: probe aDKK1 binding to arrayed compounds – biochemical, biotinylated probe, 635/667 nm fluorescence, primary screen (AID 1099);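 also: score merges 667nm spot fluorescence with signal to noise across triplicate slides; reference of the scale not given here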
Conditions: small-molecule microarray, higher = more signal
Result type: composite z-score
# output: bare number, no unit

The following compounds have reported results that may help.
>>> measured_result("CCCc1cc2c(n1Cc1ccc(OC)cc1)C(C)C1CN(C(=O)c3ccccc3)C(C)(C(=O)OC)C21 (stereo not given)")
1.27
>>> measured_result("N#Cc1ccc(NN2C(C(O)c3ccccc3)C=CC3C(=O)N(c4ccccc4)C(=O)C32)cc1 (stereo not given)")
0.313
>>> measured_result("O=C1c2ccccc2C(=O)C2CC([C@H]3Oc4ccccc4S(=O)(=O)N4CCC[C@@H]34)=CCC12 (stereo not given in full)")
-0.158
>>> measured_result("COCCOC(=O)N1C(=O)[C@@]2(c3ccccc31)[C@H](c1ccc(OCCO)cc1)N1[C@H](c3ccccc3)[C@H](c3ccccc3)OC(=O)[C@H]1[C@@H]2C(=O)NC[C@H](O)c1ccccc1")
0.161

Kindly review the next compound as well.
Lookup: Would you kindly share the measured composite z-score for COCC(=C=CC[C@@H](O)c1ccccc1OCCO)C[C@@H](O)c1ccccn1 ?
Found: -0.0661

---

Tested on: Sonic hedgehog protein (Shh)
Experiment: Sonic hedgehog microarray binding compounds – biochemical, small-molecule microarray, 635/667 nm fluorescence, primary screen (AID 1151);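 also: Shh protein binding to compounds spotted on small-molecule microarray slides; score combines spot fluorescence intensity with signal-to-noise across triplicate slides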
Details: 635 nm fluorescence, higher = more signal
Label yes when composite z-score >= -0.2; otherwise no.

Look over these answered cases.
>>> class_name("CN(C)CCCCCCNC(=O)[C@@H]1C[C@@H]2C(=O)NCC(=O)N2[C@@H]1c1ccc(O)cc1")
"yes"
>>> class_name("OCCCC1=CC(c2cccs2)N(Cc2cccc(OC(F)(F)F)c2)CC1 (configuration not stated)")
"yes"
>>> class_name("C=C[C@@H](O)[C@H]1CC(c2ccccc2)=NO1")
"yes"
>>> class_name("CC(C)CN1C(=O)[C@@]2(Cc3ccccc31)c1ccccc1C(=O)N(Cc1ccccc1)[C@H]2c1ccc(CO)cc1")
"no"

Lookup: Confirm if composite z-score reported for the compound O=C1CSC(c2cccc([N+](=O)[O-])c2)N1c1ccccc1 (configuration not stated) is -0.2 or above.
Found: yes

Lookup: Please check the record NC(=O)NCC#Cc1ccc2c(c1)[C@]1(C(=O)N2)[C@H](c2ccc(O)cc2)N2[C@H](c3ccccc3)[C@H](c3ccccc3)OC(=O)[C@H]2[C@@H]1C(=O)NC[C@H](O)c1ccccc1 and state if its composite z-score is at or above -0.2.
Found: no

Lookup: Quick check, composite z-score >= -0.2? C=CCOC(=O)[C@@H]1[C@H]2C(=O)O[C@H](c3ccccc3)[C@H](c3ccccc3)N2[C@H](c2ccc(OCCOC(=O)[C@H]3C[C@H]4C(=O)N[C@@H](Cc5ccccc5)C(=O)N4[C@H]3c3cccc(OCCO)c3)cc2)[C@@]12C(=O)Nc1ccc(I)cc12
Found: yes

---

The entries below are paired with their reported composite z-score.
Molecular target: Torsin-1A-interacting protein 2 (Homo sapiens) (UniProt Q8NFQ8)
Sequence (Q8NFQ8 whole entry, looked up): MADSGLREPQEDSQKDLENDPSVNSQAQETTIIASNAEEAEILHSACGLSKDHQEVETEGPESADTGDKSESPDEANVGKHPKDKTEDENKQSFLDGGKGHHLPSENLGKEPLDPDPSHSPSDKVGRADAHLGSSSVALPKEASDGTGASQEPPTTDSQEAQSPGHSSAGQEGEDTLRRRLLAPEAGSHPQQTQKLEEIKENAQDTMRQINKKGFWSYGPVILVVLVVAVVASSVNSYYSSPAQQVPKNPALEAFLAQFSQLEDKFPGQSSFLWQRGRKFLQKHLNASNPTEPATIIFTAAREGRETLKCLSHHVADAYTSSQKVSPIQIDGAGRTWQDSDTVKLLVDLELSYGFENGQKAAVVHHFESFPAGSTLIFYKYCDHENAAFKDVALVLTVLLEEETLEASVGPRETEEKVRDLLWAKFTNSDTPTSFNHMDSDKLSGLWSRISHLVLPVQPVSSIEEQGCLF
Experiment: small molecules binding lysate-expressed LULL1 – cell lysate, human LULL1 lysate, 635/667 nm fluorescence, primary screen (AID 1092);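 also: probe is lysate of COS7 cells overexpressing human LULL1; score merges per-feature 667 nm fluorescence with signal-to-noise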
Conditions: small-molecule microarray, hLULL1 lysate binding, 635 nm fluorescence; higher = more signal

Check out these entries, answers already filled in.
>>> measured_result("C=CCC(OC(C)=O)[C@@H]1[C@@H](N(Cc2cccc3ccccc23)C(=O)c2ccc(C)cc2)c2cc(OCCCO)ccc2N1C(=O)c1ccc2ccccc2c1 (some centres undefined)")
1.19
>>> measured_result("CC1(C)[C@@H]2CC(C(O)C3C=CC4C(=O)N(c5ccccc5)C(=O)C4N3Nc3ccccc3F)=C[C@@H]1C2 (some centres undefined)")
3.19
>>> measured_result("CC(C)CN1C(=O)[C@@]2(Cc3ccccc31)c1ccccc1C(=O)N(Cc1ccccc1)[C@H]2c1ccc(CO)cc1")
0.771
>>> measured_result("NC(=O)NCC#Cc1ccc2c(c1)[C@]1(C(=O)N2)[C@H](c2ccc(OCCO)cc2)N2[C@H](c3ccccc3)[C@H](c3ccccc3)OC(=O)[C@H]2[C@@H]1C(=O)N1CCN(c2ncccn2)CC1")
1.6
>>> measured_result("COc1ccc(C#Cc2ccc3c(c2)[C@]2(C(=O)N3)[C@H](C(=O)O)[C@H]3C(=O)O[C@H](c4ccccc4)[C@H](c4ccccc4)N3[C@@H]2c2ccc(OCCO)cc2)cc1")
2.37

Lookup: Which value of composite z-score has been reported for CC(C)C(CO)N1C(=O)[C@@H]2[C@H]3C(=O)OCC=C[C@H]3OC23C=CCN(CCN2CCOCC2)C(=O)[C@@H]13 (some centres undefined) in the records?
Found: 1.13
